Quick reference for pKi among some molecules
Sequence of the target: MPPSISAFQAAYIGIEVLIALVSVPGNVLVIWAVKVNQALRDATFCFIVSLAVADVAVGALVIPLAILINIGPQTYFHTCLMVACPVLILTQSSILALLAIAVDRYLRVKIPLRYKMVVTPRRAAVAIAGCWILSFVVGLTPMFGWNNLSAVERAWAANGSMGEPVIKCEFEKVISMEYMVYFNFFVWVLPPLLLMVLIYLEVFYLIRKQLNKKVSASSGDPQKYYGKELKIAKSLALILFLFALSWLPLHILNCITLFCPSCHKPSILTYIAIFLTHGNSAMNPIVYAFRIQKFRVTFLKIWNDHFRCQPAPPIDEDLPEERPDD
pKi: −log10 of the molar value.
reported.endpoint: pKi

cpd_smiles=COCCOc1ccc(N2CCN(CCNc3cc4nc(-c5ncco5)nn4c(N)n3)CC2)cc1 reported_endpoint=pKi readout_value="< 5.00"
cpd_smiles=CN(CCN1CCN(c2ccc(OCCOC(F)(F)F)cc2)CC1)c1cc2nc(-c3ncco3)nn2c(N)n1 reported_endpoint=pKi readout_value="< 5.00"
cpd_smiles=[2H]C([2H])([2H])OCCOc1ccc(N2CCN(CCN(C)c3cc4nc(-c5ncco5)nn4c(N)n3)CC2)c(F)c1 reported_endpoint=pKi readout_value="< 5.00"

---

# protocol: Plasma pharmacokinetic parameters following intravenous (IV) or oral (PO) administration in rats
# Format: in vivo, Sprague-Dawley rats
# test.parameters: male, Sprague-Dawley, rat, plasma, intravenous, 0.5 mg/kg, Table 6; essentially as described in Example 28
reported.endpoint: clearance (mL/min/kg)

compound="COCCOc1ccc(N2CCN(CCN(C)c3cc4nc(-c5ncco5)nn4c(N)n3)CC2)c(Cl)c1 [Compound 15]" display_unit=mL/min/kg readout_value=20
compound="COCCOc1cnc(N2CCN(CCN(C)c3cc4nc(-c5ncco5)nn4c(N)n3)CC2)nc1 [Compound 3]" display_unit=mL/min/kg readout_value=47
compound="CN(CCN1CCN(c2ccc(OCCOC(F)(F)F)cc2)CC1)c1cc2nc(-c3ncco3)nn2c(N)n1 [Compound 5]" display_unit=mL/min/kg readout_value=21
compound="[2H]C([2H])([2H])OC([2H])([2H])C([2H])([2H])Oc1cnc(N2CCN(CCN(C)c3cc4nc(-c5ncco5)nn4c(N)n3)CC2)c(F)c1 [Compound 13]" display_unit=mL/min/kg readout_value=33
